These measurements were taken from the supplement of paper PMC9112550.

Test system: Escherichia coli TOP10
METHOD DESCRIPTION: shrunken log2 fold change of peptide-encoding DNA abundance (4.5 h post-induction vs induction); higher = less antimicrobial activity (less host growth inhibition)
REPORTED CONDITIONS: time post-induction: 4.5 h; library: site-saturation at positions 5, 18, 19, 20
Label Yes when shrunken log2 fold change >= -0.08; otherwise No.

Reference set (3 entries):
[[record]]
biosequence = "RRIRCRPPRLPRPRPRPQFMPRP"
assigned_label = "No"

[[record]]
biosequence = "RRIRCRPPRLPRPRPRPADYPRP"
assigned_label = "No"

[[record]]
biosequence = "RRIRPRPPRLPRPRPRPVIPPRP"
assigned_label = "No"


Answer whether shrunken log2 fold change of RRIRQRPPRLPRPRPRPTERPRP is greater than or equal to -0.08.
Yes

Entry RRIRSRPPRLPRPRPRPCVYPRP : is its shrunken log2 fold change no less than -0.08?
Yes

# bool: shrunken log2 fold change of RRIRRRPPRLPRPRPRPWVLPRP >= -0.08
Yes

In plain terms: is recorded shrunken log2 fold change at least -0.08 for RRIRRRPPRLPRPRPRPFNIPRP ?
No

Is reported shrunken log2 fold change greater than or equal to -0.08 here: RRIRWRPPRLPRPRPRPKQFPRP
Yes

----------
Tested on: Escherichia coli TOP10
METHOD DESCRIPTION: shrunken log2 fold change of peptide-encoding DNA abundance (4.5 h post-induction vs induction); higher = less antimicrobial activity (less host growth inhibition)
REPORTED CONDITIONS: time post-induction: 4.5 h; library: site-saturation at positions 5, 18, 19, 20
Mark Not satisfied for shrunken log2 fold change values under -0.2, and Satisfied for everything at or above.

Answered cases to consult:
[[record]]
biosequence = "RRIRTRPPRLPRPRPRPKDHPRP"
assigned_label = "Satisfied"

[[record]]
biosequence = "RRIRVRPPRLPRPRPRPEFYPRP"
assigned_label = "Not satisfied"

[[record]]
biosequence = "RRIRHRPPRLPRPRPRPWHEPRP"
assigned_label = "Satisfied"

[[record]]
biosequence = "RRIRERPPRLPRPRPRPFNMPRP"
assigned_label = "Not satisfied"

[[record]]
biosequence = "RRIRLRPPRLPRPRPRPHHLPRP"
assigned_label = "Not satisfied"


Is shrunken log2 fold change for RRIRFRPPRLPRPRPRPSLFPRP at or above -0.2?
Not satisfied

Is reported shrunken log2 fold change greater than or equal to -0.2 here: RRIRIRPPRLPRPRPRPIFQPRP
Not satisfied

Would you say RRIRIRPPRLPRPRPRPGFYPRP shows shrunken log2 fold change at minimum -0.2?
Satisfied

----------
Test system: Escherichia coli TOP10
METHOD DESCRIPTION: shrunken log2 fold change of peptide-encoding DNA abundance (4.5 h post-induction vs induction); higher = less antimicrobial activity (less host growth inhibition)
REPORTED CONDITIONS: time post-induction: 4.5 h; library: site-saturation at positions 5, 18, 19, 20
Label Criterion met when shrunken log2 fold change >= -0.2; otherwise Criterion not met.

[[record]]
biosequence = "RRIRYRPPRLPRPRPRPHHMPRP"
assigned_label = "Criterion not met"

[[record]]
biosequence = "RRIRFRPPRLPRPRPRPDEAPRP"
assigned_label = "Criterion met"

[[record]]
biosequence = "RRIRVRPPRLPRPRPRPLANPRP"
assigned_label = "Criterion met"

[[record]]
biosequence = "RRIRTRPPRLPRPRPRPFVVPRP"
assigned_label = "Criterion not met"

[[record]]
biosequence = "RRIRKRPPRLPRPRPRPYVMPRP"
assigned_label = "Criterion not met"


# next sequence below
In plain terms: is recorded shrunken log2 fold change at least -0.2 for RRIRLRPPRLPRPRPRPNDYPRP ?
Criterion not met

----------
Test system: Escherichia coli TOP10
METHOD DESCRIPTION: shrunken log2 fold change of peptide-encoding DNA abundance (4.5 h post-induction vs induction); higher = less antimicrobial activity (less host growth inhibition)
REPORTED CONDITIONS: time post-induction: 4.5 h; library: site-saturation at positions 5, 18, 19, 20
PROPERTY: shrunken log2 fold change
Would you mind answering with just the numeric figure?

[[record]]
biosequence = "RRIRIRPPRLPRPRPRPQLRPRP"
reading = -0.203


# return recorded shrunken log2 fold change for input RRIRQRPPRLPRPRPRPHWMPRP
-0.0751

Item RRIRWRPPRLPRPRPRPLYDPRP : provide shrunken log2 fold change
-0.0701

Give the value of shrunken log2 fold change reported for the following: RRIRKRPPRLPRPRPRPMLMPRP
0.322

Give the measured shrunken log2 fold change for RRIRHRPPRLPRPRPRPSILPRP
-0.464

Query shrunken log2 fold change for RRIRRRPPRLPRPRPRPHHDPRP
-0.298

Recall and state the measured shrunken log2 fold change for RRIRFRPPRLPRPRPRPWYIPRP .
-0.623

Return shrunken log2 fold change for the following sequence: RRIRIRPPRLPRPRPRPMSVPRP
0.0466

----------
Measured shrunken log2 fold change accompanies every entry in the list below.
Tested on: Escherichia coli TOP10
METHOD DESCRIPTION: shrunken log2 fold change of peptide-encoding DNA abundance (4.5 h post-induction vs induction); higher = less antimicrobial activity (less host growth inhibition)
REPORTED CONDITIONS: time post-induction: 4.5 h; library: site-saturation at positions 5, 18, 19, 20
Answer using only a numeral; do not append any unit.

[[record]]
biosequence = "RRIRMRPPRLPRPRPRPVAHPRP"
reading = 0.148

[[record]]
biosequence = "RRIRYRPPRLPRPRPRPGAPPRP"
reading = 0.312

[[record]]
biosequence = "RRIRNRPPRLPRPRPRPGESPRP"
reading = -0.111

[[record]]
biosequence = "RRIRARPPRLPRPRPRPMILPRP"
reading = 0.0109

[[record]]
biosequence = "RRIRPRPPRLPRPRPRPRYNPRP"
reading = -0.522

[[record]]
biosequence = "RRIRDRPPRLPRPRPRPHHDPRP"
reading = -0.336

[[record]]
biosequence = "RRIRQRPPRLPRPRPRPDFEPRP"
reading = 0.0209

[[record]]
biosequence = "RRIRDRPPRLPRPRPRPLYHPRP"
reading = -0.54


Give shrunken log2 fold change for RRIRSRPPRLPRPRPRPWQMPRP tested on Escherichia coli TOP10.
0.0651

Send back Escherichia coli TOP10 shrunken log2 fold change of RRIRHRPPRLPRPRPRPFIKPRP only.
-0.138

Give reported shrunken log2 fold change for RRIRARPPRLPRPRPRPENQPRP (Escherichia coli TOP10)
0.153

Look up and report shrunken log2 fold change, with Escherichia coli TOP10 as system, for RRIRARPPRLPRPRPRPARVPRP
0.813

GET shrunken log2 fold change | system: Escherichia coli TOP10 | item: RRIRRRPPRLPRPRPRPVFYPRP
-0.0199

State, for Escherichia coli TOP10, measured shrunken log2 fold change of the sequence listed here: RRIRGRPPRLPRPRPRPAIDPRP
0.568

Supply shrunken log2 fold change measured with Escherichia coli TOP10 for RRIRFRPPRLPRPRPRPHDNPRP .
-0.392

----------
System: Escherichia coli TOP10
METHOD DESCRIPTION: shrunken log2 fold change of peptide-encoding DNA abundance (4.5 h post-induction vs induction); higher = less antimicrobial activity (less host growth inhibition)
REPORTED CONDITIONS: time post-induction: 4.5 h; library: site-saturation at positions 5, 18, 19, 20
PROPERTY: shrunken log2 fold change
API doc: respond with a numeric literal and nothing else, no unit.

Recorded shrunken log2 fold change, per entry:
[[record]]
biosequence = "RRIRIRPPRLPRPRPRPVGWPRP"
reading = 0.668

[[record]]
biosequence = "RRIRVRPPRLPRPRPRPDIGPRP"
reading = -0.173

[[record]]
biosequence = "RRIRLRPPRLPRPRPRPIDCPRP"
reading = -0.00194

[[record]]
biosequence = "RRIRARPPRLPRPRPRPINHPRP"
reading = -0.376


State, for Escherichia coli TOP10, measured shrunken log2 fold change of the sequence listed here: RRIRRRPPRLPRPRPRPGQTPRP
0.0182

Output reported shrunken log2 fold change of the sequence RRIRIRPPRLPRPRPRPVPIPRP on Escherichia coli TOP10.
-0.403

Report the value of shrunken log2 fold change obtained on Escherichia coli TOP10 for RRIRARPPRLPRPRPRPEYFPRP .
0.188

Recall the reported shrunken log2 fold change of RRIRIRPPRLPRPRPRPERNPRP when tested on Escherichia coli TOP10.
0.146

Look up and report measured shrunken log2 fold change (Escherichia coli TOP10) for the following sequence: RRIRTRPPRLPRPRPRPAGAPRP
0.164

Quote Escherichia coli TOP10 shrunken log2 fold change for entry RRIRHRPPRLPRPRPRPNCIPRP .
-0.753

----------
shrunken log2 fold change by entry:
System: Escherichia coli TOP10;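 note: peptides expressed intracellularly from a pBAD plasmid library in pooled LB shake-flask culture, induced with 0.3% L-arabinose, DNA abundance read by NGS, three biological replicates, DESeq2 with apeglm shrinkage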
METHOD DESCRIPTION: shrunken log2 fold change of peptide-encoding DNA abundance (4.5 h post-induction vs induction); higher = less antimicrobial activity (less host growth inhibition)
REPORTED CONDITIONS: time post-induction: 4.5 h; library: site-saturation at positions 5, 18, 19, 20
Form: value (number only, do not type unit).

[[record]]
biosequence = "RRIRQRPPRLPRPRPRPAFLPRP"
reading = -0.0387

[[record]]
biosequence = "RRIRGRPPRLPRPRPRPMTDPRP"
reading = 0.603

[[record]]
biosequence = "RRIRDRPPRLPRPRPRPMISPRP"
reading = 0.185

[[record]]
biosequence = "RRIRERPPRLPRPRPRPQQGPRP"
reading = -0.219


Then this sequence:
Fill in reported shrunken log2 fold change for this entry: RRIRVRPPRLPRPRPRPWLAPRP
0.232
